pIC50 values, listed per item
- system_under_test: UniProtKB P48736
- run_description: Cellular U937 AKT assay K2 (HTRF)
- Format: cell-based
- assay_conditions: U937 cells, K2 format; read-out: Assay K2 PI3Kγ IC50
// pIC50: -log10(molar conc.)

For orientation, consider the following solved cases.
Problem: Short answer please: pIC50, UniProtKB P48736, entry Cc1ccc(S(=O)(=O)NCC2(C)CCCO2)cc1-c1cnc(N)c(-c2cn(C)nc2C)n1 (stereo not drawn)
Result: 6.55

Problem: Next up: Cc1ncc(-c2nc(-c3cc(S(=O)(=O)NCC4(O)COC4)ccc3C)cnc2N)s1
Result: 7.59

Field: next molecule
Problem: Short answer please: pIC50, UniProtKB P48736, entry Cc1ccc(S(=O)(=O)NCCC2(O)CCCCC2)cc1-c1cnc(N)c(-n2cncn2)n1
Result: 6.39

###

- system_under_test: PI 3-kinase alpha (Homo sapiens, UniProt P42336)
- Sequence (P42336 whole entry): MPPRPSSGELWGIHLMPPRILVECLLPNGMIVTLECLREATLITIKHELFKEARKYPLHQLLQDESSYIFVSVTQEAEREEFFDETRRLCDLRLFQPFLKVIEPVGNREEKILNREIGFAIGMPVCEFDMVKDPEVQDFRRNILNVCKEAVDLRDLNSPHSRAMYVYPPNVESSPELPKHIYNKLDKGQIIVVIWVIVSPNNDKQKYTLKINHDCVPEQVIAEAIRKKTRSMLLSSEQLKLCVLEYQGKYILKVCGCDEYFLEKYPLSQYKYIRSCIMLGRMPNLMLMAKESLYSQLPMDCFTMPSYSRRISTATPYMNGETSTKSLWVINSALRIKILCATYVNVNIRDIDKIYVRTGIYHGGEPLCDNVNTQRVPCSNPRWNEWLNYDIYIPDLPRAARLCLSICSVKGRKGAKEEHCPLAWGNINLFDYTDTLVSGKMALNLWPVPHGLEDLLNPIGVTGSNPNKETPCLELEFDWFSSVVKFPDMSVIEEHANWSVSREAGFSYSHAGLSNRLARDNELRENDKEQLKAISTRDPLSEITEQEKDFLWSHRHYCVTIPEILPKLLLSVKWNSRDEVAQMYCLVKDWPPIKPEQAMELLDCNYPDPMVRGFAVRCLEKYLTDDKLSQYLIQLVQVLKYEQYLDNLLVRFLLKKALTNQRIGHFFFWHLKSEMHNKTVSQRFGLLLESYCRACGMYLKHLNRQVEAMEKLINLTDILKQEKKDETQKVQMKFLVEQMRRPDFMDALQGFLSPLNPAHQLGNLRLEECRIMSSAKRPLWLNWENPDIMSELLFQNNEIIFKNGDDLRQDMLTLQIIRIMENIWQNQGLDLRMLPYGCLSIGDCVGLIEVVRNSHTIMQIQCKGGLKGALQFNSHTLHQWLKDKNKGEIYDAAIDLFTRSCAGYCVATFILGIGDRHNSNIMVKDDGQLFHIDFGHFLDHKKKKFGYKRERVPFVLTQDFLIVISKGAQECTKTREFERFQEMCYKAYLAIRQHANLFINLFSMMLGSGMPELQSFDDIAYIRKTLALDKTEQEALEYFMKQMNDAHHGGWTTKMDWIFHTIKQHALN
- run_description: Kinase Glo Luminescent Kinase Assay (Kglo), assay A
- Assay type: biochemical
- assay_conditions: read-out: Assay A PI3Kα IC50
measurement_kind: IC50 (µM)
Report only the number, with the unit µM understood.

Problem: Consider the compound CNCCNS(=O)(=O)c1ccc(C)c(-c2cnc(N)c(-c3ccnc(C)c3)n2)c1 and give its measured IC50.
Result: 2.3

Problem: Next up: Cc1cn(-c2nc(-c3cc(S(=O)(=O)NCC(C)(C)O)ccc3C)cnc2N)c(C)n1
Result: 2.5

Problem: Next up: CCN1CCC[C@@H]1CNS(=O)(=O)c1ccc(C)c(-c2cnc(N)c(-n3cncn3)n2)c1
Result: 3.5

Problem: Next up: COc1ccc(-c2nc(-c3cc(S(=O)(=O)NCCC(C)(C)O)ccc3C)cnc2N)c(C)n1
Result: 1.16

Problem: Next up: Cc1ncc(-c2nc(-c3cc(S(=O)(=O)NCC(C)(C)CO)ccc3C)cnc2N)s1
Result: 0.04

Next:
Problem: Consider the compound Cc1ccc(S(=O)(=O)NCC(C)(F)F)cc1-c1cnc(N)c(-n2cncn2)n1 and give its measured IC50.
Result: 0.56

Problem: Next up: Cc1cc(-c2nc(-c3cc(S(=O)(=O)N[C@H]4CC[C@H](N)CC4)ccc3C)cnc2N)ccn1
Result: 3

Problem: Next up: Cc1cc(-c2nc(-c3cc(S(=O)(=O)NC4CCNC(=O)C4)ccc3C)cnc2N)ccn1 (centres unmarked)
Result: 0.4

###

pIC50 values, listed per item
- system_under_test: PI 3-kinase delta (Homo sapiens, UniProt O00329)
- Sequence (O00329 whole entry): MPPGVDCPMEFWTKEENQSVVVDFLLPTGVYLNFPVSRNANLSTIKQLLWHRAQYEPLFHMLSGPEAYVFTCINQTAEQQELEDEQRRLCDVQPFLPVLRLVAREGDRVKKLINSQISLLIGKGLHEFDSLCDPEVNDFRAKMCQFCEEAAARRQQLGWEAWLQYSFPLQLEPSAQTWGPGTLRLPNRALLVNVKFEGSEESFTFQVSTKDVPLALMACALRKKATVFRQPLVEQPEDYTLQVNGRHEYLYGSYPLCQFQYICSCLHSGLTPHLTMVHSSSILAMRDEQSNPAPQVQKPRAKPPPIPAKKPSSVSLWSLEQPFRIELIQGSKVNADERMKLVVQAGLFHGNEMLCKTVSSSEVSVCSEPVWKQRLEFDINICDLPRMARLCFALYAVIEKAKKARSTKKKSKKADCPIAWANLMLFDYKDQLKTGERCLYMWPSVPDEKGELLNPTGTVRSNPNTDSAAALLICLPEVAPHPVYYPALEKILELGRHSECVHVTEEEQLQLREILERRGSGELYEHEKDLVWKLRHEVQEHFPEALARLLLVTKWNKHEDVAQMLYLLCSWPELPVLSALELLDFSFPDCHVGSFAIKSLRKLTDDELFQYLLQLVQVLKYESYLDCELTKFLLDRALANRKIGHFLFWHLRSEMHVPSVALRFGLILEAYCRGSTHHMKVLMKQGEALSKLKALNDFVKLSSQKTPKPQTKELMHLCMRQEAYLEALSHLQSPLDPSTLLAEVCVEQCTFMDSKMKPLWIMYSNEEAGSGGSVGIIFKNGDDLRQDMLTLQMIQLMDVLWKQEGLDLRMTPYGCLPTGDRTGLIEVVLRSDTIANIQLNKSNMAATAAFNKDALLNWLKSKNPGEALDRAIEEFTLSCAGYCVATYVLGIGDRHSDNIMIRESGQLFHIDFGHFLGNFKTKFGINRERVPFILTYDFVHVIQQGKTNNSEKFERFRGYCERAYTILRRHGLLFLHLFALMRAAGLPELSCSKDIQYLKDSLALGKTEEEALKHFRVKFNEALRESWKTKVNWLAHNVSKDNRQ
- Sequence (P27986 461-568 partner): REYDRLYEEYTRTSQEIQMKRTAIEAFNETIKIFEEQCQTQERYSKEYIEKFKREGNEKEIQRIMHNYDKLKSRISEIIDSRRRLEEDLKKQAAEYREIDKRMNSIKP
- run_description: TR-FRET Adapta assay, assay F
- assay_conditions: read-out: Assay F PI3Kδ IC50
// pIC50: -log10(molar conc.)

Problem: Short answer please: pIC50, PI 3-kinase delta (Homo sapiens, UniProt O00329), entry Cc1ccc(S(=O)(=O)NCCC(C)(C)O)cc1-c1cnc(N)c(-c2cnn(CC(C)C)c2)n1 [Example 119.32]
Result: 6.70

Problem: Next up: Cc1ncc(-c2nc(-c3cc(S(=O)(=O)NCC4(C)COC4)ccc3C)cnc2N)s1 [Example 120]
Result: 7.22

Field: next compound
Problem: Short answer please: pIC50, PI 3-kinase delta (Homo sapiens, UniProt O00329), entry Cc1ccc(S(=O)(=O)NCC2CNCCO2)cc1-c1cnc(N)c(-c2cn(C)nc2C)n1 (stereo not shown) [Example 128.8]
Result: 7.00

###

- system_under_test: PI 3-kinase gamma (Homo sapiens, UniProt P48736)
- Sequence (P48736 whole entry): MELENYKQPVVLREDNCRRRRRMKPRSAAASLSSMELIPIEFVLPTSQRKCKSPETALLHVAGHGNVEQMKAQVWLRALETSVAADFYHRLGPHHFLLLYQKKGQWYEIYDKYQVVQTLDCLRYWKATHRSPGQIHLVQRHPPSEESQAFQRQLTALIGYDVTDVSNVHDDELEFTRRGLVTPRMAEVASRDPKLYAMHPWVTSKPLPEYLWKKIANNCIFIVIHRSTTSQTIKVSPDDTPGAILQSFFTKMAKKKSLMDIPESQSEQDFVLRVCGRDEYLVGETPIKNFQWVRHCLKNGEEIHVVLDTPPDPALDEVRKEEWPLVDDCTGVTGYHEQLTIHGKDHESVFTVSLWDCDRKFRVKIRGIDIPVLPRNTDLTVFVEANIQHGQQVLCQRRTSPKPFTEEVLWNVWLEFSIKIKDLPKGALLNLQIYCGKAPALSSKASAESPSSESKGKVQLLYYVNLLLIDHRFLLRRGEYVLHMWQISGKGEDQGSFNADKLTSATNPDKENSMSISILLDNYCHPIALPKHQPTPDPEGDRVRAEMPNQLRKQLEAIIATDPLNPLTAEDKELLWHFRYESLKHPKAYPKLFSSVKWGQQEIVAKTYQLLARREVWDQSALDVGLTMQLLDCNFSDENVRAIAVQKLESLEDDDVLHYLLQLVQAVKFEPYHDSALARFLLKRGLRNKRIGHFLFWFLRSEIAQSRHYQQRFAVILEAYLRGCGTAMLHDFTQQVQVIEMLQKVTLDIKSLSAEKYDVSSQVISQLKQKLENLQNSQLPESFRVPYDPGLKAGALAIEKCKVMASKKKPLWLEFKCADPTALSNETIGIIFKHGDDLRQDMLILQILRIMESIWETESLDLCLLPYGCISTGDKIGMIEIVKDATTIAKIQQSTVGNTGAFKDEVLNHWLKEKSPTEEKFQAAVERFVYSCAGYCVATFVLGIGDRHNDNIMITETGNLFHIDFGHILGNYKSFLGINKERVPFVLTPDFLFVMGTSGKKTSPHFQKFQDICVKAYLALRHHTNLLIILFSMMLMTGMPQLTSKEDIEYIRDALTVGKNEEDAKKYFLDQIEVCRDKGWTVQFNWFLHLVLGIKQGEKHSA
- run_description: TR-FRET Adapta assay, assay E
- Format: biochemical
- assay_conditions: read-out: Assay E PI3Kγ IC50
Counter-ions that a name gives are not always drawn.
measurement_kind: log10 of IC50 (log10 of the value in nM)
Please be aware that the numbers have been log10-transformed from IC50 in nM.

Problem: Consider the compound Cc1cc(-c2nc(-c3cc(S(=O)(=O)N4CCC(N)CC4)ccc3C)cnc2N)ccn1 and give its measured log10 of IC50.
Result: 2.51

Problem: Next up: Cc1cc(-c2nc(-c3cc(S(=O)(=O)NCCCCCO)ccc3C)cnc2N)ccn1
Result: 1.20

Problem: Next up: CCCn1cc(-c2nc(-c3cc(S(=O)(=O)NCCC(C)(C)O)ccc3C)cnc2N)cn1
Result: 1.49

Problem: Next up: Cc1ccc(S(=O)(=O)NCCC(C)(C)O)cc1-c1cnc(N)c(-c2ccc(N3CCCC3)nc2)n1
Result: 2.56

Problem: Next up: Cc1ccc(S(=O)(=O)NCC(C)(C)O)cc1-c1cnc(N)c(-n2cnc(CN(C)C)n2)n1 [Example 117, hydrochloride salt]
Result: 1.56

Problem: Next up: Cc1ccc(S(=O)(=O)NC2CC3(CC(O)C3)C2)cc1-c1cnc(N)c(-c2cn(C)nc2C)n1 (single isomer, unassigned) [Example 9b]
Result: 1.08

Problem: Next up: Cc1ccc(S(=O)(=O)NCC(=O)C(C)(C)C)cc1-c1cnc(N)c(-n2cncn2)n1
Result: 1.23

Problem: Next up: Cc1ccc(S(=O)(=O)NCC(C)(C)O)cc1-c1cnc(N)c(-c2cnn(C)c2)n1
Result: 1.73

Problem: Next up: Cc1ccc(S(=O)(=O)NCCC(C)(C)O)cc1-c1cnc(N)c(-n2ccnc2)n1
Result: 3.26

Problem: Next up: Cc1ccc(S(=O)(=O)NCC2(CO)COC2)cc1-c1cnc(N)c(-c2cn(C)nc2C)n1
Result: 1.15

Next:
Problem: Consider the compound Cc1ccc(S(=O)(=O)NCCC(C)(C)O)cc1-c1cnc(N)c(-c2cn[nH]c2)n1 and give its measured log10 of IC50.
Result: 1.15

Problem: Next up: Cc1ccc(S(=O)(=O)N2CCC(F)(F)CC2)cc1-c1cnc(N)c(-n2cncn2)n1
Result: 2.23

###

- system_under_test: PI 3-kinase alpha (Homo sapiens, UniProt P42336)
- run_description: Kinase Glo Luminescent Kinase Assay (Kglo), assay A
- Format: biochemical
- assay_conditions: read-out: Assay A PI3Kα IC50
Doc: threshold 400 nM (exclusive). Items with IC50 beneath it return condition met; others return condition not met.

Here's what some known entries look like.
Problem: Is IC50 strictly under 400 nM for the entry Cc1cc(-c2nc(-c3cc(S(=O)(=O)N[C@H]4CC[C@H](O)CC4)ccc3C)cnc2N)on1 ?
Result: condition not met

Problem: Next up: Cc1ccc(S(=O)(=O)NCC(C)(C)O)cc1-c1cnc(N)c(-c2cnn(C)c2C)n1
Result: condition met

Problem: Next up: Cc1ccc(S(=O)(=O)NC2CC2)cc1-c1cnc(N)c(-n2cncn2)n1
Result: condition not met

Problem: Next up: Cc1ccc(S(=O)(=O)NCC(C)(C)N2CCOCC2)cc1-c1cnc(N)c(-n2cncn2)n1
Result: condition not met

Problem: Next up: Cc1ccc(S(=O)(=O)NC2CCSC2=O)cc1-c1cnc(N)c(-n2cncn2)n1 (stereo not shown)
Result: condition not met

Next:
Problem: Is IC50 strictly under 400 nM for the entry Cc1ncc(-c2nc(-c3cc(S(=O)(=O)NC[C@H]4C[C@@H](O)C4)ccc3C)cnc2N)s1 [Example 20a] ?
Result: condition met

Problem: Next up: Cc1cncc(-c2nc(-c3cc(S(=O)(=O)NCCC(C)(C)O)ccc3C)cnc2N)c1
Result: condition not met

Problem: Next up: Cc1ncc(-c2nc(-c3cc(S(=O)(=O)NCCCO)c(F)cc3C)cnc2N)s1
Result: condition met

Problem: Next up: CCc1noc(-c2nc(-c3cc(S(=O)(=O)NCCC(C)(C)O)ccc3C)cnc2N)n1
Result: condition not met

###

- system_under_test: PI 3-kinase gamma (Homo sapiens, UniProt P48736)
- run_description: Cellular U937 AKT assay K1 (MSD)
- Format: cell-based
- assay_conditions: U937 cells, K1 format; read-out: Assay K1 PI3Kγ IC50
measurement_kind: IC50 (nM)
Report only the number, with the unit nM understood.

For orientation, consider the following solved cases.
Problem: Consider the molecule CCN1CCC[C@@H]1CNS(=O)(=O)c1ccc(C)c(-c2cnc(N)c(-c3cnc(C)s3)n2)c1 and give its measured IC50.
Result: 39

Problem: Next up: Cc1ccc(S(=O)(=O)NCCC2(O)CCCC2)cc1-c1cnc(N)c(-n2cncn2)n1
Result: 126

Next:
Problem: Consider the molecule Cc1ccc(S(=O)(=O)NCCC(C)(C)O)cc1-c1cnc(N)c(-c2cc(C3CC3)no2)n1 and give its measured IC50.
Result: 66

Problem: Next up: Cc1ccc(S(=O)(=O)NCC2(CO)COC2)cc1-c1cnc(N)c(-n2cncn2)n1
Result: 418

Problem: Next up: COc1ccncc1-c1nc(-c2cc(S(=O)(=O)NCCC(C)(C)O)ccc2C)cnc1N
Result: 333

Problem: Next up: Cc1ccc(S(=O)(=O)NCC2(CO)CCCCC2)cc1-c1cnc(N)c(-n2cncn2)n1
Result: 52

Problem: Next up: Cc1cc(-c2nc(-c3cc(S(=O)(=O)N[C@H]4CC[C@H](O)CC4)ccc3C)cnc2N)ccn1
Result: 63

Problem: Next up: Cc1ccc(S(=O)(=O)NOC2CCOC2)cc1-c1cnc(N)c(-n2cncn2)n1 (stereo not shown)
Result: 36
